system: Escherichia coli TOP10; test: shrunken log2 fold change of peptide-encoding DNA abundance (4.5 h post-induction vs induction); higher = less antimicrobial activity (less host growth inhibition); details: time post-induction: 4.5 h; library: site-saturation at positions 5, 18, 19, 20;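 also: peptides expressed intracellularly from a pBAD plasmid library in pooled LB shake-flask culture, induced with 0.3% L-arabinose, DNA abundance read by NGS, three biological replicates, DESeq2 with apeglm shrinkage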
measured_endpoint: shrunken log2 fold change

[[record]]
sequence_record = "RRIRLRPPRLPRPRPRPYASPRP"
result_number = 0.000498

[[record]]
sequence_record = "RRIRMRPPRLPRPRPRPFASPRP"
result_number = 0.0812

[[record]]
sequence_record = "RRIRVRPPRLPRPRPRPCPKPRP"
result_number = -0.0457

[[record]]
sequence_record = "RRIRMRPPRLPRPRPRPTESPRP"
result_number = 0.0389

[[record]]
sequence_record = "RRIRVRPPRLPRPRPRPIGMPRP"
result_number = 0.211

[[record]]
sequence_record = "RRIRGRPPRLPRPRPRPLDAPRP"
result_number = 0.969

[[record]]
sequence_record = "RRIRRRPPRLPRPRPRPDNIPRP"
result_number = 0.123

[[record]]
sequence_record = "RRIRERPPRLPRPRPRPMARPRP"
result_number = 0.116

[[record]]
sequence_record = "RRIRPRPPRLPRPRPRPNKRPRP"
result_number = -0.101

[[record]]
sequence_record = "RRIRGRPPRLPRPRPRPELPPRP"
result_number = 1.33

[[record]]
sequence_record = "RRIRARPPRLPRPRPRPKHGPRP"
result_number = 0.246

[[record]]
sequence_record = "RRIRLRPPRLPRPRPRPHASPRP"
result_number = -0.046

[[record]]
sequence_record = "RRIRVRPPRLPRPRPRPCSAPRP"
result_number = 0.0399

[[record]]
sequence_record = "RRIRERPPRLPRPRPRPCMCPRP"
result_number = -1.03

[[record]]
sequence_record = "RRIRARPPRLPRPRPRPWQAPRP"
result_number = -0.0548

[[record]]
sequence_record = "RRIRDRPPRLPRPRPRPWCRPRP"
result_number = 0.0772

[[record]]
sequence_record = "RRIRFRPPRLPRPRPRPDWDPRP"
result_number = 0.124

[[record]]
sequence_record = "RRIRHRPPRLPRPRPRPTFHPRP"
result_number = -0.326

[[record]]
sequence_record = "RRIRKRPPRLPRPRPRPSDWPRP"
result_number = 0.288

[[record]]
sequence_record = "RRIRRRPPRLPRPRPRPMKQPRP"
result_number = 0.134

[[record]]
sequence_record = "RRIRMRPPRLPRPRPRPFDFPRP"
result_number = 0.0495

[[record]]
sequence_record = "RRIRNRPPRLPRPRPRPEPHPRP"
result_number = 0.131

[[record]]
sequence_record = "RRIRWRPPRLPRPRPRPVCTPRP"
result_number = 0.26

[[record]]
sequence_record = "RRIRERPPRLPRPRPRPYWGPRP"
result_number = -0.346

[[record]]
sequence_record = "RRIRCRPPRLPRPRPRPALSPRP"
result_number = 0.282

[[record]]
sequence_record = "RRIRCRPPRLPRPRPRPFCQPRP"
result_number = -0.353

[[record]]
sequence_record = "RRIRTRPPRLPRPRPRPICCPRP"
result_number = 0.0718

[[record]]
sequence_record = "RRIRTRPPRLPRPRPRPLVLPRP"
result_number = -0.162

[[record]]
sequence_record = "RRIRARPPRLPRPRPRPMVTPRP"
result_number = 0.21

[[record]]
sequence_record = "RRIRPRPPRLPRPRPRPATTPRP"
result_number = 0.0694

[[record]]
sequence_record = "RRIRFRPPRLPRPRPRPKCPPRP"
result_number = -0.128

[[record]]
sequence_record = "RRIRERPPRLPRPRPRPSFKPRP"
result_number = -0.401

